Measured Ki values are reported for all entries that follow.
Molecular target: 5-HT1F receptor (Homo sapiens)
Sequence (P30939 1-366): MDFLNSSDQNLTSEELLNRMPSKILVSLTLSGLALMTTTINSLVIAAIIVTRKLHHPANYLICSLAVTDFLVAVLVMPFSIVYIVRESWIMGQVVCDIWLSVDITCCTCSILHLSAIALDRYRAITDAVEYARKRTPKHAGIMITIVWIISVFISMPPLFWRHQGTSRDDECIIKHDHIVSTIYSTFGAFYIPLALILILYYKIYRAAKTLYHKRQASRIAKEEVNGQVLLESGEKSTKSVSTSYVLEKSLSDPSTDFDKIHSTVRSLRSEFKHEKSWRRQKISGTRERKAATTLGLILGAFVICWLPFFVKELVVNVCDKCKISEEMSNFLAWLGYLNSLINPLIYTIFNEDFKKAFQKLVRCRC
Assay: biochemical
Conditions: Table I; displacement of 4.5-5.5 nM [3H]5-HT, 37° C., 30 minutes; read-out: 5-HT1F BINDING Ki
Please format your answer as a value with the unit trailing.

Example entries and their recorded answers appear below.
| compound | Ki |
| --- | --- |
| Fc1ccc2[nH]cc(C3CCN(CCc4cccnc4)CC3)c2c1 [Example 47, monohydrate] | 115 nM |
| Clc1ccc2[nH]cc(C3CCN(CCc4cnn(-c5ccccc5)c4)CC3)c2c1 | 6.9 nM |
| COc1ccc2[nH]cc(C3CCN(CCc4cnn(C)c4)CC3)c2c1 | 9.9 nM |
| Cn1cc(CCN2CCC(c3c[nH]c4ccc(Br)cc34)CC2)cn1 | 3 nM |

Next compound, please.
Q. So what Ki did `Cn1cc(CCN2CCC(c3c[nH]c4ccccc34)CC2)cn1` get with 5-HT1F receptor (Homo sapiens)?
A. 5.7 nM

* * *

biological target: 5-HT1F receptor (Homo sapiens, UniProt P30939); assay: biochemical; conditions: Table I; displacement of 4.5-5.5 nM [3H]5-HT, 37° C., 30 minutes; read-out: 5-HT1F BINDING Ki
measurement label: pKi
Value format note: pKi is -log10 of concentration (mol/L); just state the number.

| entry smiles | system tested | pKi |
| --- | --- | --- |
| Clc1ccc2[nH]cc(C3CCN(CCc4cnn(-c5ccccc5Br)c4)CC3)c2c1 | 5-HT1F receptor (Homo sapiens, UniProt P30939) | 7.32 |

Q. So what pKi did `NC(=O)c1ccc2[nH]cc(C3CCN(CCc4cnn(-c5ccccc5)c4)CC3)c2c1` get with 5-HT1F receptor (Homo sapiens, UniProt P30939)?
A. 7.62

Q. So what pKi did `Cc1ccccc1-n1cc(CCN2CCC(c3c[nH]c4ccc(Cl)cc34)CC2)cn1` get with 5-HT1F receptor (Homo sapiens, UniProt P30939)?
A. 6.82

Q. So what pKi did `CC(C)n1cc(CCN2CCC(c3c[nH]c4ccc(F)cc34)CC2)cn1` get with 5-HT1F receptor (Homo sapiens, UniProt P30939)?
A. 8.31

Q. So what pKi did `Fc1ccc2[nH]cc(C3CCN(CCc4cn[nH]c4)CC3)c2c1` get with 5-HT1F receptor (Homo sapiens, UniProt P30939)?
A. 8.09

Q. So what pKi did `CCCn1cc(CCN2CCC(c3c[nH]c4ccc(F)cc34)CC2)cn1` get with 5-HT1F receptor (Homo sapiens, UniProt P30939)?
A. 8.22

Q. So what pKi did `Cn1cc(CCN2CCC(c3c[nH]c4ccc(O)cc34)CC2)cn1` get with 5-HT1F receptor (Homo sapiens, UniProt P30939)?
A. 8.85

Q. So what pKi did `Oc1ccc2[nH]cc(C3CCN(CCc4cnn(C5CCCCC5)c4)CC3)c2c1` get with 5-HT1F receptor (Homo sapiens, UniProt P30939)?
A. 8.36

* * *

Measured pKi values are reported for all entries that follow.
molecular target: 5-HT1F receptor (Homo sapiens, UniProt P30939); assay: biochemical; conditions: Table I; displacement of 4.5-5.5 nM [3H]5-HT, 37° C., 30 minutes; read-out: 5-HT1F BINDING Ki
Structures can show the parent of a compound that is named as a salt.
Value format note: pKi is -log10 of concentration (mol/L); just state the number.

Example entries and their recorded answers appear below.
| compound | pKi |
| --- | --- |
| Fc1cccc(-n2cc(CCN3CCC(c4c[nH]c5ccc(Cl)cc45)CC3)cn2)c1 | 7.29 |
| Fc1ccc2[nH]cc(C3CCN(CCc4cnn(CC5CC5)c4)CC3)c2c1 [Example 20, hydrochloride] | 8.05 |
| Brc1ccc2[nH]cc(C3CCN(CCc4cnn(C5CCCCC5)c4)CC3)c2c1 | 7.31 |
| Clc1ccc2[nH]cc(C3CCN(CCc4cnn(-c5ccccc5Cl)c4)CC3)c2c1 | 7.36 |
| COc1ccc(-n2cc(CCN3CCC(c4c[nH]c5ccc(Cl)cc45)CC3)cn2)cc1 | 7.90 |

Q. Please give the measured pKi for this compound: `Clc1ccc2[nH]cc(C3CCN(CCCc4cn[nH]c4)CC3)c2c1`
A. 7.38

Q. Please give the measured pKi for this compound: `COc1ccccc1-n1cc(CCN2CCC(c3c[nH]c4ccc(Cl)cc34)CC2)cn1`
A. 7.20

Q. Please give the measured pKi for this compound: `CC(C)n1cc(CCN2CCC(c3c[nH]c4ccccc34)CC2)cn1`
A. 8.35

Q. Please give the measured pKi for this compound: `Cc1ccc(-n2cc(CCN3CCC(c4c[nH]c5ccc(Cl)cc45)CC3)cn2)cc1`
A. 7.42

Q. Please give the measured pKi for this compound: `Oc1ccc2[nH]cc(C3CCN(CCc4cnn(-c5ccccc5)c4)CC3)c2c1`
A. 8.62

Q. Please give the measured pKi for this compound: `Clc1ccc2[nH]cc(C3CCN(CCc4cnn(-c5cccc(Br)c5)c4)CC3)c2c1`
A. 6.85

Q. Please give the measured pKi for this compound: `Fc1ccc2[nH]cc(C3CCN(CCc4cnn(-c5ccccc5)c4)CC3)c2c1`
A. 8.26

Q. Please give the measured pKi for this compound: `Brc1ccc2[nH]cc(C3CCN(CCc4cnn(-c5ccccc5)c4)CC3)c2c1`
A. 7.86
